B1: TRIM55 (parent)
chain: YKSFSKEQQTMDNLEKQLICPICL

Variants of: B1
Assay: protein stability index of a GFP-peptide fusion (GPS, HEK-293T) (PSI 1-6); higher = more stable;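 further: lentivirally expressed fusions sorted by FACS into six bins by GFP to DsRed ratio, PSI derived from sequencing read proportions per bin multiplied by bin number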
Details: c terminus: a fixed tail appended
Response key: label 1 means protein stability index >= 2; label 0 means protein stability index < 2.

Worked examples, 3 variants total:
1) YKSFSKEQQTMDNLEKELICPICL [Q17E] = label 1
2) YKSFSKEQQTMDNLNKQLICPICL [E15N] = label 1
3) YKSFSKEDQTMDNLEKQLICPICL [Q8D] = label 1

# evaluate next
Q: Check if protein stability index >= 2 (inclusive). Item: YKSFSKEQQTMDNLEKRLICPICL [Q17R]
Ans: label 1
